# experimentalTarget: hT1R2/hT1R3 sweet receptor expressed in an HEK293 cell line (Homo sapiens, UniProt Q7RTX0+Q8TE23)
# Construct: expressed in transfected cells; host or cells: HEK293 derivative, clone S-9
# Sequence (Q8TE23 20-839): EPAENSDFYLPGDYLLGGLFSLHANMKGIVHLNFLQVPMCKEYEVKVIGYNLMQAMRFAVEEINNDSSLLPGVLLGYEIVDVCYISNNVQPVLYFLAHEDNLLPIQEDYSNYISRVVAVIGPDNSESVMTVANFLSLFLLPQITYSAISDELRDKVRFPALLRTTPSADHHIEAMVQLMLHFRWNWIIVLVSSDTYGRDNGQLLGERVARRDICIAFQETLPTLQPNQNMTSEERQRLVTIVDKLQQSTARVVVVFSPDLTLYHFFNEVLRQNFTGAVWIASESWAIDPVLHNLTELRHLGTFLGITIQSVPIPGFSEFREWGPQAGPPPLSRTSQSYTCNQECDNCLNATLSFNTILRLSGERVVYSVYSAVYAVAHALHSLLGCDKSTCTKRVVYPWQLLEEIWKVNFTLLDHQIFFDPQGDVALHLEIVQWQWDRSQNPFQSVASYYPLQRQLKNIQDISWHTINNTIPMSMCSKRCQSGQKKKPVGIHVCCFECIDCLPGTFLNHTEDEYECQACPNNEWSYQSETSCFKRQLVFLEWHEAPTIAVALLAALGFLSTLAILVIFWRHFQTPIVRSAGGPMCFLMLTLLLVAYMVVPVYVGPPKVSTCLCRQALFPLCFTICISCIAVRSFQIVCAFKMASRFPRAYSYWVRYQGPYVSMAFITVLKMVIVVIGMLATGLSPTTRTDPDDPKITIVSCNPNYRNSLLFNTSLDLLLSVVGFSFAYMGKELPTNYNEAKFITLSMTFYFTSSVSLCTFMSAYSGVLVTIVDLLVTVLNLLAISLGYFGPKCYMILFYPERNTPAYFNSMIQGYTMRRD
# Sequence (Q7RTX0 21-852): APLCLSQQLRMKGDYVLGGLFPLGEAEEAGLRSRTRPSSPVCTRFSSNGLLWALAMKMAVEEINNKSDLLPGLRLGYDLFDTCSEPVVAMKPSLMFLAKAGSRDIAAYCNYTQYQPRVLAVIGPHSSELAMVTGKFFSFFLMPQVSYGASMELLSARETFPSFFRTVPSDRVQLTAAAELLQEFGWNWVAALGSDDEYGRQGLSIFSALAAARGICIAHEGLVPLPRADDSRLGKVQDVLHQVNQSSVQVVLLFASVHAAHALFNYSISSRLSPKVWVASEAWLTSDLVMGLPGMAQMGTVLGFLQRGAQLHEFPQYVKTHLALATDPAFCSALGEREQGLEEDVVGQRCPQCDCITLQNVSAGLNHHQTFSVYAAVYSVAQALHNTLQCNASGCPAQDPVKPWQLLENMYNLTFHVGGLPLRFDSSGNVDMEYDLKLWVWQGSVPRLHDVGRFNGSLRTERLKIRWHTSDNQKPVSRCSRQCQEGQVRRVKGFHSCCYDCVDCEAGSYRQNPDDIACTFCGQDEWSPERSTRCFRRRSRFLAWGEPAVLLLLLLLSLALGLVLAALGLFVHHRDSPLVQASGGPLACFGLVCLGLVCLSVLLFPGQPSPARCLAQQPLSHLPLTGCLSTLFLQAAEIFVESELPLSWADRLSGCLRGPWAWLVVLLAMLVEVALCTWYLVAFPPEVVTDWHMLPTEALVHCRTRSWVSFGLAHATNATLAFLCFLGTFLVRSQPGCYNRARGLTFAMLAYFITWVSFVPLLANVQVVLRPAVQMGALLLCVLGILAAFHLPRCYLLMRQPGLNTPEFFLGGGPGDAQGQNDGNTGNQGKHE
# assay: In vitro hT1R2/hT1R3 sweet taste receptor activation assay (FLIPR, dose response)
# Type: cell-based
# setupConditions: read-out: Sweet EC50

compound: CC(C)Oc1ccc(NC(=S)NCc2cccnc2)cc1 [Example B35]
unitSpec: nM
EC50: 6710
--
compound: CCCOc1ccc(NC(=S)NCc2ccco2)cc1 [Example B5]
unitSpec: nM
EC50: 1510
--
compound: S=C(NCc1ccc[nH]1)Nc1ccc(N2CCOCC2)cc1 [Example B38]
unitSpec: nM
EC50: 8170
--
compound: CC(C)Oc1ccc(NC(=S)NCc2cccn2C)cc1 [Example B2]
unitSpec: nM
EC50: 2590
--
compound: CN(C)c1ccc(NC(=S)NCc2cccs2)cc1 [Example B25]
unitSpec: nM
EC50: 1500

Origin of measurements: patent US20060257543A1
